# credit: patent US20230416363A1

- measurement target: T1, hPD-1-his (human, UniProt Q15116 25-167)
- T1 construct: domain: IgV domain; monomer in solution; biotin-labelled where captured by streptavidin; also called biotin-hPD-1-his
- T1 sequence (Q15116 other isoform, or with tags, fused parts or gaps limits assumed): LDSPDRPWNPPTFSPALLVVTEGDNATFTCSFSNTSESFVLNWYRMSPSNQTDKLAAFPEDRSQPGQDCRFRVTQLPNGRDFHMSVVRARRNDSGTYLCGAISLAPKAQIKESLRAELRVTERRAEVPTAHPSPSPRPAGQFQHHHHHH
- test description: ELISA, biotin-hPD-1-his on streptavidin
Field: EC50. Provide a value for each of the binders that follow.
Give the number; nM is assumed, so skip it.

May I ask what EC50 has been recorded for 34C1 (antibody, V domains shown) VH: QVQLVQSGAEVKKPGSSVKVSCKASGGTFSSSVISWVRQAPGQGLEWMGGIIPIFGTANYAQKFQGRVTITADESTSTAYMELSSLRSEDTAVYYCAREGLGCSGGSCYSGYYYGMDVWGQGTTVTVSS VL: DIVMTQSPLSLPVTPGEPASISCRSSESLLYSNGNTYLDWYLQKPGQSPQLLIYEVSNRASGVPDRFSGSGSGTDFTLKISRVEAEDVGVYYCMQGTRWPYTFGQGTKVEIK ? 0.233

What do we get for 33G8 (antibody, V domains shown) VH: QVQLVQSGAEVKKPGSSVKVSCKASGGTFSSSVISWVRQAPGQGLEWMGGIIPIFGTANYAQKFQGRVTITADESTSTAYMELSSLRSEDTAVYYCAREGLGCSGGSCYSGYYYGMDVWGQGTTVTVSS VL: DIVMTQSPLSLPVTPGEPASISCRSSQSLLHSNGYNYLDWYLQKPGQSPQLLIYQASTLGSGVPDRFSGSGSGTDFTLKISRVEAEDVGVYYCMQGTHWPYTFGQGTKLEIK ? 0.197

What do we get for 31B1 (antibody, V domains shown, also called 780_38; 33B1 and 31B2 (apparent misprints)) VH: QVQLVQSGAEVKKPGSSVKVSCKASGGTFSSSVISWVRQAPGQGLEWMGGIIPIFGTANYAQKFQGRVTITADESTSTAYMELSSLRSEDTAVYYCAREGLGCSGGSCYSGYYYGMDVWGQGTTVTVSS VL: DIVMTQSPLSLPVTPGEPASISCRSSQSLLHSNGYNYLDWYLQKPGQSPQLLIYEASSLHSGVPDRFSGSGSGTDFTLKISRVEAEDVGVYYCMQGTHWPYTFGQGTKVEIK ? 0.244

What do we get for 33C4 (antibody, V domains shown, also called 780_39) VH: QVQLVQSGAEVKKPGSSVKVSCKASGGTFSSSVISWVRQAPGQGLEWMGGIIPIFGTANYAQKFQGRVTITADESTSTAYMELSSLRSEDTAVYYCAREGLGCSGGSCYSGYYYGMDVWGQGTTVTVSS VL: DIVMTQSPLSLPVTPGEPASISCRSSQSLLHSNGYNYLDWYLQKPGQSPQLLIYEASSLHTGVPDRFSGSGSGTDFTLKISRVEAEDVGVYYCMQGSHWPYTFGQGTKLEIK ? 0.209
